target: ATX (Homo sapiens); experiment: Immune complex kinase assay, immunoprecipitated HA-ATXWT, GST-p53 1-70 substrate; conditions: pretreatment of immunoprecipitated HA-ATXWT; GST-p53 1-70 phosphorylation; read-out: drug concentration required for 50% inhibition (IC50) of ATX activity in vitro
Sequence (Q96Q15 141-3661 S144C): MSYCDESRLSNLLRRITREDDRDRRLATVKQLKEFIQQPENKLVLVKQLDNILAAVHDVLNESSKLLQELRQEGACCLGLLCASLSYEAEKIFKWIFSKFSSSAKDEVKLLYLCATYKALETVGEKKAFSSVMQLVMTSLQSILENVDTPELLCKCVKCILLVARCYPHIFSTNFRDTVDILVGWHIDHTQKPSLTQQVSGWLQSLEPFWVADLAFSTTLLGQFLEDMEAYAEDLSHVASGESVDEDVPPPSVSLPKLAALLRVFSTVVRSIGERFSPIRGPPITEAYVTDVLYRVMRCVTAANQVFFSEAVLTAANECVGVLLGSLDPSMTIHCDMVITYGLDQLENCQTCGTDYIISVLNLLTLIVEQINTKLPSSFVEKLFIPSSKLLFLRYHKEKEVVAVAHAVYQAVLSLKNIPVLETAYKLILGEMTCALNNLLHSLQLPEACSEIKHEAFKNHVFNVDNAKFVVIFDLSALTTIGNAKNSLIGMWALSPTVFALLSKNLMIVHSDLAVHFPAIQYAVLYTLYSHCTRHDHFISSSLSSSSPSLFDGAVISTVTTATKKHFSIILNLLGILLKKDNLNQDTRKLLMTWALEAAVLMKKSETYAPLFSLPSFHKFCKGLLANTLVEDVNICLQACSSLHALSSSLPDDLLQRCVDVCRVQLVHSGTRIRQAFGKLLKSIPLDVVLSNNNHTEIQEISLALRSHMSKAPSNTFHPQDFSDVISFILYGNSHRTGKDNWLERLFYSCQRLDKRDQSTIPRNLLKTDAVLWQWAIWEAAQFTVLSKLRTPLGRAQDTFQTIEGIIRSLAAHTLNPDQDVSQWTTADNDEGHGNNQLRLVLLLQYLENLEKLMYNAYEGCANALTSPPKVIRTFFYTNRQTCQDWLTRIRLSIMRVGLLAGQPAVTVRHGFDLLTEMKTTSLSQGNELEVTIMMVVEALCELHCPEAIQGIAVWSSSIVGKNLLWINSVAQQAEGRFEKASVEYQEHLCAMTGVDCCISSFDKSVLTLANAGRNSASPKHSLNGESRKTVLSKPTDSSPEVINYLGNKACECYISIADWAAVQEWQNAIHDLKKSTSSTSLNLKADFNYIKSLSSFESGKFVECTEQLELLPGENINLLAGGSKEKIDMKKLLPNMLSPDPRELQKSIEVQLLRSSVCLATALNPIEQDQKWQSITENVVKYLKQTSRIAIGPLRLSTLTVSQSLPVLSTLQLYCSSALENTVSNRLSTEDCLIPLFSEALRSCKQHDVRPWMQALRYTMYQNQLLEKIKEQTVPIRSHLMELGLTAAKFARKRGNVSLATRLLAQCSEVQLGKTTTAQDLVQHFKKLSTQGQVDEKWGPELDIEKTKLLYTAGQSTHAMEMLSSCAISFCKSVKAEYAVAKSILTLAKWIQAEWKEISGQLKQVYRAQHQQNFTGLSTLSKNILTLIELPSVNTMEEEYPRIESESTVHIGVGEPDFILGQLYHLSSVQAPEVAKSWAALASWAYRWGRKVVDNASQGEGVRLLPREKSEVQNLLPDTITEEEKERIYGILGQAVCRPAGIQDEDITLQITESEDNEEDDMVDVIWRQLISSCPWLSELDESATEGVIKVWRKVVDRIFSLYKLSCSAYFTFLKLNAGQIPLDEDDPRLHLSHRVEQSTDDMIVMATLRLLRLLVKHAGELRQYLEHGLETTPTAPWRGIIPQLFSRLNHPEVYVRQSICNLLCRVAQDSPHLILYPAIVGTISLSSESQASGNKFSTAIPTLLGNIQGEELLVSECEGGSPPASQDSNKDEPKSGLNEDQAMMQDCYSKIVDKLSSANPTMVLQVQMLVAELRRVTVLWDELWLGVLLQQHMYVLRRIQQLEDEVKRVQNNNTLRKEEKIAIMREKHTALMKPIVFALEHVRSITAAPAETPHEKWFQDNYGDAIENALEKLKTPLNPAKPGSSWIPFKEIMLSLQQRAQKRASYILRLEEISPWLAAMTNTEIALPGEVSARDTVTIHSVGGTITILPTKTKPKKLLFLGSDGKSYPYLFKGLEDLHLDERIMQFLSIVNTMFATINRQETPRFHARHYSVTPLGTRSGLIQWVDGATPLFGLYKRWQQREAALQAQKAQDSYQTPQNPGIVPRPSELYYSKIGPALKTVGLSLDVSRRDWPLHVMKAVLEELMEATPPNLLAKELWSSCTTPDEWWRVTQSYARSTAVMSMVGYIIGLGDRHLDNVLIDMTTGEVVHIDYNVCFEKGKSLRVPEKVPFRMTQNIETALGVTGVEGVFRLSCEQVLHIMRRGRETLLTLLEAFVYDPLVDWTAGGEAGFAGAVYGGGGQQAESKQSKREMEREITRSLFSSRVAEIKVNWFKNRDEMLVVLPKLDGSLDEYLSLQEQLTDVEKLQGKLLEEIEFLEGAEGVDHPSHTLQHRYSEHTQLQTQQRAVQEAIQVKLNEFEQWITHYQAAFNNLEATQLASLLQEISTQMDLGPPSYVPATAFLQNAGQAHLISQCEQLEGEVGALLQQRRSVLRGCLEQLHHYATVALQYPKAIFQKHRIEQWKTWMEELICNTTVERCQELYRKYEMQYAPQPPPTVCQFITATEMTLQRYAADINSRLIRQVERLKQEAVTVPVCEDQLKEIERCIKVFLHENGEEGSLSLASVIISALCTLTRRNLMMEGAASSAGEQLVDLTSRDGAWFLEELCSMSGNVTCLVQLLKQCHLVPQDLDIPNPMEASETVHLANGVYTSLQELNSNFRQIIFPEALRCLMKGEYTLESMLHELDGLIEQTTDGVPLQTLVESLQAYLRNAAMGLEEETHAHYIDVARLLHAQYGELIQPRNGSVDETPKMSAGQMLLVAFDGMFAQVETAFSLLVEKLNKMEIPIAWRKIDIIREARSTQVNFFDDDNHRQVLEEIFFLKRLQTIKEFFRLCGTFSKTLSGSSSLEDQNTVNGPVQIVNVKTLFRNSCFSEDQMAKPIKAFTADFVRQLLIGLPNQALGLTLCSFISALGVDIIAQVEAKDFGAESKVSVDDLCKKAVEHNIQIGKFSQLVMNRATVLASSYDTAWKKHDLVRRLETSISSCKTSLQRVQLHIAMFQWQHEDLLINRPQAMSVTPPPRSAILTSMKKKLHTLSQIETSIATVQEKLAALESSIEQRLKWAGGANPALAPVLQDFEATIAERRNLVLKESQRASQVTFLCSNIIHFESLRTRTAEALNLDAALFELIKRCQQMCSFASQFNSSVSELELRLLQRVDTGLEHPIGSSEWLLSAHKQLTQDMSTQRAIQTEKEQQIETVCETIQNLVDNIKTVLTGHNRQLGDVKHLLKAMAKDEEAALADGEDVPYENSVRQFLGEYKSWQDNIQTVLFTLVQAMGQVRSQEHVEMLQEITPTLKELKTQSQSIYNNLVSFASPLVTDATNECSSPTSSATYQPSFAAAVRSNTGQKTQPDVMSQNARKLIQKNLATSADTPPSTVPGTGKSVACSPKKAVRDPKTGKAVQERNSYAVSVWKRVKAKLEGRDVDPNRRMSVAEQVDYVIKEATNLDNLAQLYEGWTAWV
Observation type: IC50

INPUT: Under ATX (Homo sapiens): report IC50 of COC[C@H]1OC(=O)c2coc3c2[C@@]1(C)C1=C(C3=O)[C@@H]2CCC(=O)[C@@]2(C)C[C@H]1OC(C)=O [wortmannin] .
OUTPUT: 0.01 to 0.1 µM
